# Experimental target: pooled human IgG (human IgG1, 2, 3 and 4)
Measured endpoint: Enzyme Activity Endpoint Assay: IgG (ng/µL)
Answers are plain numbers, in ng/µL.

Example results:
INSERT INTO measurements (protein, reported_measurement) VALUES
  ('PRT-575 (protein) MANQEIRYSEETPKTITSVWTKGVTPPTDFIYNEDVLHAPYIANQGWYDITKTFNGKDDLLCGAATAGNMLHWWFDQNKEQIERYLKKHPEKQKINFNGEQMFDVKEAIDTKDSQTNSKLFEYFKDKAFPYLSTKHLGVFPDHVIDMFINGYRLSLTNHGPTPVKEQTKDPRGGIFDAVFTRGDQSKLLTSRHDFKEKTLKEISDLIKQELTEGKALGLSHTYANVRINHVINLWGADFDAEGNLEAIYVTDSDSNASIGMKKYYVGVNSAGKVAISAKEIEGDNIGAQVLGLFTLSTGKDIWEQTNLEHHHHHH', 94),
  ('PRT-254 (protein) MVTSVWTKGVTPPTNFTYGEDVLHAPYVANQGWYDITKTFNGKDDLLCGAATAGNMLHWWFDQNKEQIENYLKKHPEKQKINFNGEQMFDVKEAIDTKDSQLDSKLFEYFLEKAFPNLSTKHLGVFPDHVIDMFINGYRLSLLNHGPTPVKRGSKDPRGGIFDAVFTRGDQSKLLTNRHDFKEKTLKEISDLIKQELTEGKALGISHTYANVRINHVINLWGADFDAEGNLEAIYVTDSDSNKSIGMKKYPVGVNSNGKVAISAKEIEEDNIGAQVLGLFTLSTGQDIWNQTN', 0),
  ('PRT-414 (protein) MTITSVWTKGVTPPTPEDFRYNNEDVLHAPYVANQGWYDITKTFDGKDNLLCGAATAGNMLHWWFDQNKEEIERYLKKHPEKQKIIFGNQELFDVKAAIDTKDSQTNSKLFNYFRDKAFPNLSARQLGVMPDLVLDMFINGYYLNLGKTQSTDVNRPYQDKDKRGGIFDAVFTRGDQTTLLTARHDLKNKGLNEISDLIKQELTEGKALALSHTYANVRINHVINLWGADFDAEGNLIAIYVTDSDANASIGMKKYFVGVNANGKVAISAKKIEGDNIGAQVLGLFTLSTGQDIWQKLS', 77),
  ('PRT-547 (protein) MANQEIRYSEETPKTITSVWTKGVTPPTDFIQNEDVLHAPYIANQGWYDITKTFNGKDDLLCGAATAGNMLHWWFDQNKEEIENYLKKHPEKQKINFNGEQMFDVKEAIDTKDSQTDSALFEYFKDKAFPYLSTKHLGVFPDHVIDMFINGYRLSLTNHGPTPVKRGTKDPRGGIFDAVFTRGDQSKLLTARHDFKEKTLNEISDLIKQELTEGKALGLSHTYANVRINHVINLWGADFNSEGNLEAIYVTDSDSNASIGMKKYYVGVNAAGKVAISAKEIEGDNIGAQVLGLFTLSTGQDIWEQTNLEHHHHHH', 0),
  ('PRT-261 (protein) MVTSVWTKGVTPPTNFTYGEDVLHAPYVANQGWYDITKLFNGKDNLLCGAATAGNMLHWWFDQNKEQIENYLKKHPEKQKINFNGEQLFDVKEAIDTKDSQLDSKLFDYFKEKAFPNLSTKHLGVFPDHVIDMFINGYRLSLLNHGPTPVKRGSKDKRGGIFDAVFTRGVQSKLLTNRHDFKEKTLKEISDLIKQELTEGKALGISHTYANGRINHVINLWGADFDAEGNLEAIYVTDSDTNPSIGMKKYFVGVNSSGKVAISAKEIEEDNIGAQVLGLFTLSTGQDIWNQTN', 615);

Please state Enzyme Activity Endpoint Assay: IgG for every protein in the list that follows.
1. PRT-519 (protein) MVTSVWTKGVTPPTDFIKGEDVFHAPYKAGQGWYDITKTFNGKDNLLCGAATAGNMLHWWFDQNKEYIEAYLKKHPEKQKIIFNNQELFDLKAAINTKGSQKNSELFNYFRDKAFPNLSARRLGVFPDLVLDMFINGYYLNVTKTQTTDVNRTYQEKDKRGGIFDAVFTRGVQSKLLTSRHDLKNKGLKEISDLIKQELTEGKALGLSHTYANVRINHVINLWGADFDSDGNLKAIYVTDSDTNASIGMKKYFVGVNSAGKVAISAKEIKEDNIGAQVLGLFTLSTGQDIWNQTNLEHHHHHH
2. PRT-247 (protein) MVTSVWTKGVTPPANFTQGEDVFHAPYVANQGWYDITKLFNGKDDLLCGAATAGNMLHWWFDQNKDQIKRYLEEHPEKQKINFNGEQMFDVKEAIDTKNHQLDSKLFEYFLEKAFPYLSTKHLGVFPDHVIDMFINGYRLSLTNHGPTPVKEGSKDPRGGIFDAVFTRGDQSKLLTSRHDFKEKNLKEISDLIKKELTEGKALGLSHTYANVRINHVINLWGADFDSNGNLKAIAVTDSDSNASIGMKKYFVGVNSSGKVAISAKEIKEDNIGAQVLGLFTLSTGQDSWNQTN
3. PRT-518 (protein) MVTSVWTKGVTPPTDFIKGEDVFHAPYKAGQGWYDITKTFNGKDNLLCGAATAGNMLHWWFDQNKEYIEAYLKKHPEKQKIIFNNQELFDLKAAINTKGSQKNSELFNYFRDKAFPNLSARRLGVFPDLVLDMFINGYYLNVTKTQTTDVNRTYQEKDKRGGIFDAVFTRGVQSKLLTSRHDFKEKGLKEISDLIKQELTEGKALGLSHTYANVRINHVINLWGADFDSDGNLKAIYVTDSDTNASIGMKKYFVGVNSAGKVAISAKEIKEDNIGAQVLGLFTLSTGQDIWNQTNLEHHHHHH

1: 0; 2: 308; 3: 0
